tested on: IgE (Homo sapiens), P01854-1; experiment: filter; details: as ARC1335 with dI at 19; 3'-idT [19]; DPBS with Ca/Mg, BSA, RT
Sequence (P01854 other isoform, or with tags, fused parts or gaps): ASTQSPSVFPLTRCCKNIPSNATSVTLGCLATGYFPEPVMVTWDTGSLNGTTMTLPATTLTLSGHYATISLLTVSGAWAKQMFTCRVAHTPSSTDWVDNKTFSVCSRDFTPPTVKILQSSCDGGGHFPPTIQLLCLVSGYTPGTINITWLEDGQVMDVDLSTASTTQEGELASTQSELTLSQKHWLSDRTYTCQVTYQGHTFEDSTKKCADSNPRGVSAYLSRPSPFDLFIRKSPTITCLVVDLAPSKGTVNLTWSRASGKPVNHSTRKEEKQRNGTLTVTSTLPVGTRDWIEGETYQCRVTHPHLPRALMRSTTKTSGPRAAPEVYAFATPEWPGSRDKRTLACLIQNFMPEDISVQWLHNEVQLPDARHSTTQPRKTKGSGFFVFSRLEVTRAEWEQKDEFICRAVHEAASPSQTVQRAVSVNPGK
pKd: −log10 of the molar value.

- input sequence: "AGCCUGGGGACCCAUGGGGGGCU [ARC1565]"
  target system: "IgE (Homo sapiens), P01854-1"
  pKd: 8.85

* * *

test system: IgE (Homo sapiens), P01854-1; assay: filter; details: dRmY; 2'-deoxy-5mC at 3 and 22; dC at 12; DPBS with Ca/Mg, BSA, ssDNA, tRNA; parent 27 nM

- input sequence: "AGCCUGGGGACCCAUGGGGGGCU [ARC920]"
  scale unit: "µM"
  Kd: 0.0128
